Entries and their measured solubility follow.
Procedure Details: Solubility of the compound in pH 6.5 phosphate buffer containing 5% DMSO
Measurement Conditions: phosphate buffer containing 5% DMSO

In the examples that follow, each entry is paired with its recorded solubility.
Molecule: OC(Cc1c[nH]nn1)c1ccc(Cl)cc1Cl (stereo not drawn)
solubility: > 1000 µM
//
Molecule: OC(Cn1ccnc1)c1cccc(Cl)c1 (stereo not drawn)
solubility: > 1000 µM

Kindly review the next molecule as well.
Kindly note the recorded solubility for OC(Cn1ccnc1)c1c(Cl)cccc1Cl (stereo not drawn) , which is > 1000 µM

* * *

Entries and their measured pIC50 follow.
Tested System: Indoleamine 2,3-dioxygenase 1 (Homo sapiens, UniProt P14902)
Sequence (P14902 whole entry): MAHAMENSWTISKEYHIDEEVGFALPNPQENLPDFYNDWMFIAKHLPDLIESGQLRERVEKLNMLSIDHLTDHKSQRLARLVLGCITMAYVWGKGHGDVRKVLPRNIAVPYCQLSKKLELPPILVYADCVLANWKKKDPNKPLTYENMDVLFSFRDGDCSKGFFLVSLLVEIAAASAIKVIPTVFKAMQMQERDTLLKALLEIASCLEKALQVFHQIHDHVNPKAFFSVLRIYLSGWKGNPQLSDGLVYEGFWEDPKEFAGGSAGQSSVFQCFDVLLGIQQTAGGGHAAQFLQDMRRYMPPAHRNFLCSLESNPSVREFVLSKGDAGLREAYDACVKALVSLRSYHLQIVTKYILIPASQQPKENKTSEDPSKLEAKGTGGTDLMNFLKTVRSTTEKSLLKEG
Procedure Details: Inhibition of IDO1 (unknown origin) using L-tryptophan substrate incubated for 60 mins in presence of 0.01% Triton-X by HPLC
Measurement Conditions: read-out: IC50
Note: pIC50 values are expressed as the negative base-10 logarithm of concentration in M.

In the examples that follow, each entry is paired with its recorded pIC50.
Compound: OC(Cn1ccnc1)c1ccccc1Cl (configuration not stated)
Tested System: Indoleamine 2,3-dioxygenase 1 (Homo sapiens, UniProt P14902)
pIC50: 3.70

Compound: COC(Cn1ccnc1)c1ccc(Cl)cc1Cl (configuration not stated)
Tested System: Indoleamine 2,3-dioxygenase 1 (Homo sapiens, UniProt P14902)
pIC50: 3.85

Compound: N=C(N)SCc1nc(-c2ccc(Cl)cc2)no1
Tested System: Indoleamine 2,3-dioxygenase 1 (Homo sapiens, UniProt P14902)
pIC50: 5.92

Compound: OC(Cn1ccnc1)c1ccc(Cl)cc1Cl (configuration not stated)
Tested System: Indoleamine 2,3-dioxygenase 1 (Homo sapiens, UniProt P14902)
pIC50: 3.89

Compound: Clc1ccc(C(Cn2ccnc2)OCc2cccnc2)c(Cl)c1 (configuration not stated)
Tested System: Indoleamine 2,3-dioxygenase 1 (Homo sapiens, UniProt P14902)
pIC50: 4.08

Compound: OC(Cn1ccnc1)c1ccc(Cl)c(Cl)c1 (configuration not stated)
Tested System: Indoleamine 2,3-dioxygenase 1 (Homo sapiens, UniProt P14902)
pIC50: 3.08

Kindly review the next compound as well.
Indoleamine 2,3-dioxygenase 1 (Homo sapiens, UniProt P14902) data for "Clc1ccc(CCn2ccnc2)c(Cl)c1" ; its pIC50: 3.09
